# systemName: T1, Acro SARS-CoV-2 (COVID-19) S1 protein (SARS-CoV-2, UniProt P0DTC2 16-685)
# T1 construct: also called SARS-CoV-2 S1
# testDescription: SPR
pKd: −log10 of the molar value.
observable: pKd

* variant 6-47 (Fc fusion) VHH: EVQLVESGGGLVQPGGSLRLSCAASGRTFSMHAMGWFRQAPGKERELVASITYGGNINYADSVKGRFTISADNSKNTAYLQMNSLKPEDTAVYYCAKEGYYDSTGYRTYFQQWGQGTLVTVSS | 7.36
* variant 5-56 (Fc fusion) VHH: EVQLVESGGGLVQPGGSLRLSCAASGRTFSSNMGWFRQAPGKEREFVARIFGGDRTLYADSVKGRFTISADNSKNTAYLQMNSLKPEDTAVYYCADINGDWGQGTLVTVSS | 7.27
* variant 6-43 (Fc fusion) VHH: EVQLVESGGGLVQPGGSLRLSCAASGRTFSSYAMMGWFRQAPGKEREFVASVNWDASQINYADSVKGRFTISADNSKNTAYLQMNSLKPEDTAVYYCTTLGAVYFDSSGYHDYFDYWGQGTLVTVSS | 7.75
* variant 6-34 (Fc fusion) VHH: EVQLVESGGGLVQPGGSLRLSCAASGSAFRSNAMGWFRQAPGKEREFVAHISWSSKSTYYADSVKGRFTISADNSKNTAYLQMNSLKPEDTAVYYCATYCSSTSCFDYWGQGTLVTVSS | 7.67
* variant 6-26 (Fc fusion, VHH-Fc) VHH: EVQLVESGGGLVQPGGSLRLSCAASGDTFSTSWMGWFRQAPGKEREFVATINTGGGTNYADSVKGRFTISADNSKNTAYLQMNSLKPEDTAVYYCARVTTSFDYWGQGTLVTVSS | 7.41
* variant 6-76 (Fc fusion, VHH-Fc) VHH: EVQLVESGGGLVQPGGSLRLSCAASGLAFDFDGMGWFRQAPGKEREGVAAINSGGSTYYADSVKGRFTISADNSKNTAYLQMNSLKPEDTAVYYCARFFRAHDYWGQGTLVTVSS | 7.47
* variant 5-22 (Fc fusion) VHH: EVQLVESGGGLVQPGGSLRLSCAASGFTFNVFAMGWFRQAPGKEREFVAAINWSDSRTDYADSVKGRFTISADNSKNTAYLQMNSLKPEDTAVYYCASGSDNRARELSRYEYVWGQGTLVTVSS | 6.96
* variant 6-42 (Fc fusion) VHH: EVQLVESGGGLVQPGGSLRLSCAASGDTYGSYWMGWFRQAPGKEREFVAVITSGGSTNYADSVKGRFTISADNSKNTAYLQMNSLKPEDTAVYYCTHVQNSYYYAMDVWGQGTLVTVSS | 8.00
